Listed next: entries and their corresponding furin cleavage Z-score.
Measurement target: furin, P09958;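 also: purified furin at 1:10 enzyme:substrate in 50 mM HEPES pH 7.5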
Sequence (P09958 whole entry): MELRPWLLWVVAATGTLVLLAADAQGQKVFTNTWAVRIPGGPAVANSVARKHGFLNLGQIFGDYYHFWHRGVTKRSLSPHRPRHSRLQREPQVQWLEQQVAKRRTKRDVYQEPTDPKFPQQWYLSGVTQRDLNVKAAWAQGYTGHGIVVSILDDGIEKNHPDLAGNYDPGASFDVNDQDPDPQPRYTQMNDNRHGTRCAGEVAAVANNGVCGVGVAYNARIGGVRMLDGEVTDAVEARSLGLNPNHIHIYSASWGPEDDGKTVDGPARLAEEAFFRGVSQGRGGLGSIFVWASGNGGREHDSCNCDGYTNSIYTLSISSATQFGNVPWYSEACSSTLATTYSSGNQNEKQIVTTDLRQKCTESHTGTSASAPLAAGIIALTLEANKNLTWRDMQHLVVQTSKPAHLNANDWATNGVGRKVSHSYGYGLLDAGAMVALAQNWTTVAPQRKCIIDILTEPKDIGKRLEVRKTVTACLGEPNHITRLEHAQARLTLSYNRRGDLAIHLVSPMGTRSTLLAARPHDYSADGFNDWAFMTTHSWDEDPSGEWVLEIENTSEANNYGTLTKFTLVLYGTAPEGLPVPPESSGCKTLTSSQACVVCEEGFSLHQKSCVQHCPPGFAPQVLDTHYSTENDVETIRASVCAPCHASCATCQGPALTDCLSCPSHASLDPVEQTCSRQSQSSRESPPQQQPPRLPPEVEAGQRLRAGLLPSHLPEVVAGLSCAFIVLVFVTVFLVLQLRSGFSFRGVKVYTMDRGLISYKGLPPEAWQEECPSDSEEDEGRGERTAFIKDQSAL
Measurement notes: furin cleavage Z-score vs untreated control; higher = more cleavage, active = 3.5 or more, inactive = 1 or less, 8 variable residues between constant flanks
Measurement context: 15 min
The other results are listed elsewhere or left out. The true hit rate is not given.
Lab note: jot down the number only; don't add units.

Sample answers from the record:
CARSRRLQQRAGNASASA [FS-2090]
-1.28
CARTRRYYLSAGNASASA [FS-3112]
2.33
CAVVCCAMSYAGNASASA [HC101]
0.536
CANCLRQRRGAGNASASA [FS-465]
-0.337
CARTRREAPRAGNASASA [FS-2096]
11.4

Problem: Suppose we examine the sequence CAVFGPLWILAGNASASA [HC608] ; what furin cleavage Z-score value has been reported?
Solution: -1.14

Problem: Need furin cleavage Z-score, item CAAETTVRLRAGNASASA [HC927]
Solution: -0.382

Problem: Fill in the blank: the reported furin cleavage Z-score of CARFRRQDVRAGNASASA [FS-2665] is ____.
Solution: 3.49

Problem: Could you share which furin cleavage Z-score value was measured for CAEFKRCWKGAGNASASA [FS-2859] ?
Solution: 0.463

Problem: Look up furin cleavage Z-score: CANKNRLRRIAGNASASA [FS-696]
Solution: 3.21
